Recorded values, source patent US8748429B2.

Molecular target: Human CGRP Receptor (Homo sapiens, UniProt O60894+Q16602)
Sequence (Q16602 23-461): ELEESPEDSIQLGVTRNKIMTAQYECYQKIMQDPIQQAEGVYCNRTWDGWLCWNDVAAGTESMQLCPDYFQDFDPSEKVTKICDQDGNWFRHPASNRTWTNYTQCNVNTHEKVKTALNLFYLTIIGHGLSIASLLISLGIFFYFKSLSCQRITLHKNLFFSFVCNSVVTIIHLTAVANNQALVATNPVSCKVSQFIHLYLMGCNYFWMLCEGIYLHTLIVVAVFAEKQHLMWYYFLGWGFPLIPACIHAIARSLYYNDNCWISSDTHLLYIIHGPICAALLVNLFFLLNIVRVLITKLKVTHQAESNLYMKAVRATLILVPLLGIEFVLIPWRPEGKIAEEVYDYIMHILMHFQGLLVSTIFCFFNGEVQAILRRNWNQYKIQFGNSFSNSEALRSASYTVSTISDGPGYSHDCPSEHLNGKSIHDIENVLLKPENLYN
Sequence (O60894 27-148): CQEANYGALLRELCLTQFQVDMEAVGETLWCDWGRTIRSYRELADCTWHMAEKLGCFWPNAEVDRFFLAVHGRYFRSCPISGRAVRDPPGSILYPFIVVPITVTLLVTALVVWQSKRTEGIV
Assay: Human CGRP Binding
Measured metric: IC50 (nM)

* CC(C)(C)OC(=O)N[C@@H]1c2nccnc2[C@H](OC(=O)N2CCC(n3c(=O)[nH]c4ncccc43)CC2)CC[C@H]1c1cccc(F)c1F [Example 3] | 1.1

I = CC(C)(C)OC(=O)N[C@@H]1c2nccnc2[C@H](NC(=O)N2CCC(n3c(=O)n(COCC[Si](C)(C)C)c4ncccc43)CC2)CC[C@H]1c1cccc(F)c1F [Example 6]
II = CC(C)(C)OC(=O)N[C@@H]1c2nccnc2C(CC(=O)N2CCC(n3c(=O)[nH]c4ncccc43)CC2)=CC[C@H]1c1cccc(F)c1F [Example 1]
Could you check which of I and II has a smaller value for IC50? Answer = label.
II
(II: 570 nM, I: 910 nM)

###

Target: Human CGRP Receptor (Homo sapiens, UniProt O60894+Q16602)
Assay: Human CGRP Binding
Measured metric: IC50 (nM)

• N[C@@H]1c2nccnc2[C@H](OC(=O)N2CCC(n3c(=O)[nH]c4ncccc43)CC2)CC[C@H]1c1cccc(F)c1F = 0.11

I = CC(C)(C)OC(=O)N[C@@H]1c2nccnc2[C@H](NC(=O)N2CCC(n3c(OCOCC[Si](C)(C)C)nc4ncccc43)CC2)CC[C@H]1c1cccc(F)c1F
II = N[C@@H]1c2nccnc2C(CC(=O)N2CCC(n3c(=O)[nH]c4ncccc43)CC2)=CC[C@H]1c1cccc(F)c1F
Quick check, higher IC50 between I and II ? Answer = label.
II
(II: 470 nM, I: 74 nM)

###

Target: Human CGRP Receptor (Homo sapiens, UniProt O60894+Q16602)
Experiment: Human CGRP Binding
Measured metric: IC50 (nM)

* N[C@@H]1c2scnc2[C@H](OC(=O)N2CCC(n3c(=O)[nH]c4ncccc43)CC2)CC[C@H]1c1cccc(F)c1F | 0.095

A = N[C@@H]1c2sc(C(F)(F)F)nc2[C@H](OC(=O)N2CCC(n3c(=O)[nH]c4ncccc43)CC2)CC[C@H]1c1cccc(F)c1F
B = N[C@@H]1c2nccnc2[C@H](NC(=O)N2CCC(n3c(=O)[nH]c4ncccc43)CC2)CC[C@H]1c1cccc(F)c1F
Quick check, higher IC50 between A and B ? Answer = label.
B
